- MEASURED TARGET: ZmDRIK1-K217-P492 (Zea mays)
- Construct: kinase domain, K217-P492
- PROTOCOL DESCRIPTION: biochemical
- TEST SETTINGS: read-out: dTm B, sheet ZmDRIK1-K217-P492;; DSF, Boltzmann fit, 0.1% DMSO
# ΔTm at 10 µM listing for each entry below
The reply should contain only the number, in °C.

Recorded ΔTm at 10 µM, per entry:
{"MOLECULE": "Cc1ccc2nc(NCCN)c3ncc(C)n3c2c1 [BMS-345541]", "VALUE KIND": "ΔTm at 10 µM", "OBS VALUE": -0.0998}
{"MOLECULE": "O=S(=O)(NCCNC/C=C/c1ccc(Br)cc1)c1cccc2cnccc12 [H 89 2HCl]", "VALUE KIND": "ΔTm at 10 µM", "OBS VALUE": -0.68}
{"MOLECULE": "COc1cc2ncnc(Nc3ccc(Cl)cc3F)c2cc1OC [ZM 306416]", "VALUE KIND": "ΔTm at 10 µM", "OBS VALUE": -0.758}
{"MOLECULE": "CC(C)(C)c1cc(NC(=O)Nc2ccc(-c3cn4c(n3)sc3cc(OCCN5CCOCC5)ccc34)cc2)no1 [Quizartinib (AC220)]", "VALUE KIND": "ΔTm at 10 µM", "OBS VALUE": -4.77}
{"MOLECULE": "Cc1ncc(-c2ccnc(Nc3ccc(S(C)(=O)=O)cc3)n2)n1C(C)C [AZD5438]", "VALUE KIND": "ΔTm at 10 µM", "OBS VALUE": -1.24}
{"MOLECULE": "NC1(C(=O)N[C@@H](CCO)c2ccc(Cl)cc2)CCN(c2ncnc3[nH]ccc23)CC1 [AZD5363]", "VALUE KIND": "ΔTm at 10 µM", "OBS VALUE": -1.06}
{"MOLECULE": "NC(=O)c1cccc(-c2cc(Nc3ccc(OC(F)(F)F)cc3)ncn2)c1 [GNF-2]", "VALUE KIND": "ΔTm at 10 µM", "OBS VALUE": -9.47}
{"MOLECULE": "Cc1cc(Nc2cc(CN3CCOCC3)c3nc(C)c(Cc4ccc(Cl)cc4F)n3n2)n[nH]1 [LY2784544]", "VALUE KIND": "ΔTm at 10 µM", "OBS VALUE": -0.85}

Now consider the entry below.
The molecule CCn1c2ccccc2c2cc(Nc3ccnc(NCCCN4CCOCC4)n3)ccc21 [EHop-016] , tested on ZmDRIK1-K217-P492 (Zea mays), showed ΔTm at 10 µM of -1.16

###

- MEASURED TARGET: ZmDRIK1-K217-P492 (Zea mays, UniProt C0P4K9)
- Construct: kinase domain, K217-P492
- Sequence (C0P4K9 1-514): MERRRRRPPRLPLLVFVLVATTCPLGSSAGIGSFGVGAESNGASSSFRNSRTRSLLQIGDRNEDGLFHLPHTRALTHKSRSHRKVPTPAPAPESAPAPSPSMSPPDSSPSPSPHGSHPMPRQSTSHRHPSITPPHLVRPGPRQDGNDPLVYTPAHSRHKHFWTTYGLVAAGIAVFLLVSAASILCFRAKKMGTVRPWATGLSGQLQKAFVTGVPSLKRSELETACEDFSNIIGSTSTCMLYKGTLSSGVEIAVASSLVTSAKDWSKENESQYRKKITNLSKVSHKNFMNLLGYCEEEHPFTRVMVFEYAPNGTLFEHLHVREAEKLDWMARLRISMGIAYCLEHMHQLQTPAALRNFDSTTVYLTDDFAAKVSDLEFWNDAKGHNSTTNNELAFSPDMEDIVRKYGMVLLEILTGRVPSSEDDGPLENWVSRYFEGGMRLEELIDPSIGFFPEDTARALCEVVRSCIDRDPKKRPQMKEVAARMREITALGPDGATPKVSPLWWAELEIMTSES
- PROTOCOL DESCRIPTION: biochemical
- TEST SETTINGS: read-out: dTm B, sheet ZmDRIK1-K217-P492;; DSF, Boltzmann fit, 0.1% DMSO
Structures can show the parent of a compound that is named as a salt.
VALUE KIND: ΔTm at 10 µM (°C)
Lab book: enter the figure in °C, no units written.

Example entries and their recorded answers appear below.
{"COMPOUND": "CC(C)(C)c1nc(-c2cccc(NS(=O)(=O)c3c(F)cccc3F)c2F)c(-c2ccnc(N)n2)s1", "MEASURED TARGET": "ZmDRIK1-K217-P492 (Zea mays, UniProt C0P4K9)", "ΔTm at 10 µM / °C": -1.14}
{"COMPOUND": "CN[C@@H]1C[C@H]2O[C@@](C)([C@@H]1OC)n1c3ccccc3c3c4c(c5c6ccccc6n2c5c31)C(=O)NC4", "MEASURED TARGET": "ZmDRIK1-K217-P492 (Zea mays, UniProt C0P4K9)", "ΔTm at 10 µM / °C": -0.631}
{"COMPOUND": "CC(=O)c1c(C)c2cnc(Nc3ccc(N4CCNCC4)cn3)nc2n(C2CCCC2)c1=O [Palbociclib (PD-0332991) HCl]", "MEASURED TARGET": "ZmDRIK1-K217-P492 (Zea mays, UniProt C0P4K9)", "ΔTm at 10 µM / °C": -0.775}

Consider the additional compound presented here.
So for C=CC(=O)N1CCN(c2nc(=O)n(-c3c(C)ccnc3C(C)C)c3nc(-c4c(O)cccc4F)c(F)cc23)[C@@H](C)C1 [K-Ras(G12C) inhibitor 9] , the logged ΔTm at 10 µM turned out to be -0.935

###

- MEASURED TARGET: ZmDRIK1-R187-P492 (Zea mays, UniProt C0P4K9)
- Construct: kinase domain, R187-P492
- PROTOCOL DESCRIPTION: biochemical
- TEST SETTINGS: read-out: dTm B, DSF, Boltzmann fit, 0.1% DMSO
The following compounds are shown together with reported ΔTm at 10 µM values.
Reply with just the number (in °C).

{"COMPOUND": "COc1ccc(-c2ccc3ncc4c(c3c2)n(-c2ccc(N3CCNCC3)c(C(F)(F)F)c2)c(=O)n4C)cn1", "VALUE KIND": "ΔTm at 10 µM", "OBS VALUE": -0.244}
{"COMPOUND": "CCN(CC)CCCC(C)Nc1nc(C)cc(Nc2ccc3nc(C)cc(N)c3c2)n1 (stereo not shown)", "VALUE KIND": "ΔTm at 10 µM", "OBS VALUE": -0.128}

ZmDRIK1-R187-P492 (Zea mays, UniProt C0P4K9) ΔTm at 10 µM of `CN1CCN(c2nc(C3=C(c4c[nH]c5ccccc45)C(=O)NC3=O)c3ccccc3n2)CC1` is -0.608

Response field ΔTm at 10 µM (ZmDRIK1-R187-P492 (Zea mays, UniProt C0P4K9)) for item `C[C@H](Nc1ncnc2nc[nH]c12)c1cc2cccc(Cl)c2c(=O)n1-c1ccccc1` : -0.495

###

- MEASURED TARGET: ZmDRIK1-K217-S514 (Zea mays)
- Construct: kinase domain, K217-S514
- Sequence (C0P4K9 1-514): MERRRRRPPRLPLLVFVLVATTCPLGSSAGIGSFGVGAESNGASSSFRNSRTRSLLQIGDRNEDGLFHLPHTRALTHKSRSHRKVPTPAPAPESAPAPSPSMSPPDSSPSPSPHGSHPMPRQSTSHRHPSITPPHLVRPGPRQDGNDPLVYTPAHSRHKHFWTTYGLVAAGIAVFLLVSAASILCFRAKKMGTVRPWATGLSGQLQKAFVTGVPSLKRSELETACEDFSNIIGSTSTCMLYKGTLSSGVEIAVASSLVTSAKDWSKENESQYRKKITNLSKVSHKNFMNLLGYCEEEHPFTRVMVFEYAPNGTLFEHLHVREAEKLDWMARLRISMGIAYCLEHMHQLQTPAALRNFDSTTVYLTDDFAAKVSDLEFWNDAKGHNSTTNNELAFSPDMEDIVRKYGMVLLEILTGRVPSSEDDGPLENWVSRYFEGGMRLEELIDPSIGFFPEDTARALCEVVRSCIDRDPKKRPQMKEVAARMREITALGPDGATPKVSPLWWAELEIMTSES
- PROTOCOL DESCRIPTION: biochemical
- TEST SETTINGS: read-out: dTm B, sheet ZmDRIK1-K217-S514;; DSF, Boltzmann fit, 0.1% DMSO
Structures can show the parent of a compound that is named as a salt.
Output label 1 for records whose ΔTm at 10 µM is lower than -0.3 °C, label 0 for records at or above -0.3 °C.

Before answering, review these 8 worked examples.
{"MOLECULE": "CCNc1nc(Nc2cc(F)c(C(=O)N3CCOCC3)cc2OC)ncc1C(F)(F)F [GNE-7915]", "MEASURED TARGET": "ZmDRIK1-K217-S514 (Zea mays)", "GROUP LABEL": "label 1"}
{"MOLECULE": "CN(C)Cc1cccc(N=C(c2ccccc2)c2c(O)[nH]c3cc(C(=O)N(C)C)ccc23)c1 [BIX 02189]", "MEASURED TARGET": "ZmDRIK1-K217-S514 (Zea mays)", "GROUP LABEL": "label 0"}
{"MOLECULE": "O=c1c(-c2ccc(O)cc2)coc2cc(O)cc(O)c12 [Genistein]", "MEASURED TARGET": "ZmDRIK1-K217-S514 (Zea mays)", "GROUP LABEL": "label 1"}
{"MOLECULE": "Cc1nc(N)sc1-c1ccnc(Nc2ccc(N3CCOCC3)cc2)n1 [CYC116]", "MEASURED TARGET": "ZmDRIK1-K217-S514 (Zea mays)", "GROUP LABEL": "label 0"}
{"MOLECULE": "NC(=O)c1cccc(-c2cc(Nc3ccc(OC(F)(F)F)cc3)ncn2)c1 [GNF-2]", "MEASURED TARGET": "ZmDRIK1-K217-S514 (Zea mays)", "GROUP LABEL": "label 1"}
{"MOLECULE": "COc1cccc2cc(-c3nc([C@H]4CC[C@H](C(=O)O)CC4)n4ncnc(N)c34)[nH]c12 [OSI-027]", "MEASURED TARGET": "ZmDRIK1-K217-S514 (Zea mays)", "GROUP LABEL": "label 1"}
{"MOLECULE": "C=CC(=O)Nc1cc(Nc2nccc(-c3cn(C)c4ccccc34)n2)c(OC)cc1N(C)CCN(C)C [AZD9291]", "MEASURED TARGET": "ZmDRIK1-K217-S514 (Zea mays)", "GROUP LABEL": "label 0"}
{"MOLECULE": "Cc1cc(Nc2ncc(Cl)c(Nc3ccccc3S(=O)(=O)C(C)C)n2)c(OC(C)C)cc1C1CCNCC1 [LDK378]", "MEASURED TARGET": "ZmDRIK1-K217-S514 (Zea mays)", "GROUP LABEL": "label 1"}

[Q] Is ΔTm at 10 µM strictly under -0.3 °C for the entry CC(C)(C)c1cc(C=C(C#N)C#N)cc(C(C)(C)C)c1O [Tyrphostin 9] ?
[A] label 1

[Q] In plain terms, does CC(=O)c1c(C)c2cnc(Nc3ccc(N4CCNCC4)cn3)nc2n(C2CCCC2)c1=O [Palbociclib (PD-0332991) HCl] come in under -0.3 °C for ΔTm at 10 µM?
[A] label 1

[Q] Quick check: ΔTm at 10 µM of CCn1c(N)c(C(=O)NC)c(=O)c2ccc(C#C[C@@](C)(O)COC)nc21 [SAR131675] under -0.3 °C?
[A] label 0

[Q] State whether -0.3 °C exceeds ΔTm at 10 µM recorded for CC(C)(C)Cn1c(N)nc2ccc(-c3[nH]c(C(C)(C)C)nc3-c3ccc(F)cc3)nc21 [LY2228820] .
[A] label 1

[Q] Answer whether the molecule NC1(C(=O)N[C@@H](CCO)c2ccc(Cl)cc2)CCN(c2ncnc3[nH]ccc23)CC1 [AZD5363] has ΔTm at 10 µM strictly less than -0.3 °C
[A] label 1

[Q] Consider COc1cc(N2CCC(N)CC2)ccc1Nc1ncc(Cl)c(-c2c[nH]c3ccccc23)n1 [AZD3463] . Does its ΔTm at 10 µM lie strictly below -0.3 °C?
[A] label 0

[Q] Consider the molecule Oc1c2ccccc2c2c3c(cccc13)N=N2 [SP600125] . Is its ΔTm at 10 µM strictly less than -0.3 °C?
[A] label 0
